system: SR leukemia; experiment: NCI-60 one-dose screen, 48 h (100 = growth as untreated, 0 = no growth, -100 = all killed); conditions: 10 µM unless noted
This is part of a sample that, as a whole, favours compounds with a hit. Of some 83,000 tested, about 20% had one in any assay.
Lab note - cut at 10% for growth: fulfilled if strictly below, not fulfilled if not.

Please review the entries below; each comes with its answer.
smiles entry: C=C1C(=O)O[C@H]2[C@H]1CC/C(COC(=O)C(=O)c1c[nH]c3ccc(OC)cc13)=C\CC[C@@]1(C)O[C@@H]21
study target: SR leukemia
class assignment: fulfilled
//
smiles entry: CCCCCCCC/C=C\CCCCCCCCOc1ccccc1CC(=O)NCC[N+](C)(C)C
study target: SR leukemia
class assignment: not fulfilled
//
smiles entry: CNS(=O)(=O)c1n[nH]nc1-c1cc(C(C)(C)C)c(O)c(C(C)(C)C)c1
study target: SR leukemia
class assignment: not fulfilled
//
smiles entry: N#Cc1c(-c2ccccc2)cc(-c2ccc(Nc3nc(Nc4ccc(F)cc4)nc(Nc4ccc(F)cc4)n3)cc2)nc1N
study target: SR leukemia
class assignment: fulfilled
//
smiles entry: CN1CCN(CC(=O)Nc2nc(-c3cccc(NS(=O)(=O)c4cccc5c(N(C)C)cccc45)c3)cs2)CC1
study target: SR leukemia
class assignment: not fulfilled
//
smiles entry: Cc1occc1-c1n[nH]c(=S)n1N1C(=O)CSC1=S
study target: SR leukemia
class assignment: not fulfilled
//
smiles entry: O=C(Nc1ccccc1)Nc1cccc(Oc2nnc(Cl)c3ccccc23)c1
study target: SR leukemia
class assignment: not fulfilled
//
smiles entry: Cc1ccc(NCCN(C)C)c2c(=O)c3ccccc3sc12
study target: SR leukemia
class assignment: not fulfilled

Next item in the queue.
IN: is_below(growth, 10%) for CCN(CC)CCn1nc2c3c(cccc3c1=O)-c1ccccc1-2 ?
OUT: fulfilled
